testedTarget: Schistosoma mansoni thioredoxin glutathione reductase (TGR)
measurementNotes: qHTS Assay for the Inhibitors of Schistosoma Mansoni Peroxiredoxins; also: nearly all actives have a fitted effect of over 60% in size
protocolConditions: purified TGR, DTNB reduction, TNB absorbance 405 nm; series mostly up to 114 µM
Among all 360,000 compounds or so, about 11,000 (3.1%) were called active. Not shown: some 4% with an inconclusive outcome. Calls follow the shape of the dose curve; as a rule, active = well fitted inhibition curve with a large enough effect; inconclusive = small, poorly fitted or top-dose-only effect; inactive = no such curve, though single readings can be large or run the other way. Only a selection was taken, and actives are over-represented in it overall.
Reply using exactly one outcome from class 1 for active, class 0 for inactive

What call does the record list for CC1=Nc2cc(C(=O)NCc3ccc(C)cc3)ccc2Sc2ccc(Cl)cc21 ?
class 0

What call does the record list for Cc1cc(C)c2[nH]c(=O)c(C(c3nnnn3Cc3ccc4c(c3)OCO4)N3CCCC3)cc2c1 (stereo not given) ?
class 1

What call does the record list for Cc1ccc(S(=O)(=O)Cn2nnnc2CN2CCN(Cc3ccc4c(c3)OCO4)CC2)cc1 ?
class 0

What call does the record list for Cc1ccc(CNC(=O)Cn2cnc(S(=O)(=O)N3CCCCC3)c2)o1 ?
class 0

What call does the record list for CC(=O)Nc1ccc(S(=O)(=O)NCCc2ccccc2)cc1 ?
class 0

What call does the record list for Cc1ccc(CNC(=O)C2(C(F)(F)F)C/C(=C\Cc3ccccc3)CCCO2)o1 (stereo not given) ?
class 1

What call does the record list for O=C(CCc1nc(CN2CCN(S(=O)(=O)c3ccc(Cl)cc3)CC2)no1)N1CCCCC1 ?
class 0

What call does the record list for Fc1ccccc1C(c1nnnn1Cc1ccc2c(c1)OCO2)N1CCN(Cc2ccccc2)CC1 (stereo not given) ?
class 0

What call does the record list for COc1ccc(Cl)cc1N(C)C(=O)c1cc2c(=O)oc3ccc(C)cc3c2s1 ?
class 0

What call does the record list for C=C(C)CNC(=S)Nc1ccc(S(=O)(=O)Nc2cnc3ccccc3n2)cc1 ?
class 1

src = PubChem BioAssay AID485364
